Survival (days) po for assorted compounds
# System: ANKA strain of P. berghei
# procedure-details: single dose STI in vivo screen in infected mice
# Set-up: species or system Plasmodium berghei
# condition-context: single 10 mg/kg po in 3% ethanol and 7% Tween 80; untreated control 5.6 ± 0.3
measure-name: Survival (days) po

compound="CS(=O)(=O)NC[C@H]1CC[C@]2(CC1)OOC1(O2)C2CC3CC(C2)CC1C3 (some centres unmarked) [OZ257]" measure_name="Survival (days) po" quantitative_result=8.3
compound="c1ccc(C[C@H]2CC[C@]3(CC2)OOC2(O3)C3CC4CC(C3)CC2C4)cc1 (some centres unmarked) [OZ156]" measure_name="Survival (days) po" quantitative_result=17.0
compound="Fc1ccc(C2(c3ccc(F)cc3)OOC3(CCC(c4ccccc4)CC3)O2)cc1 (centres unmarked) [OZ66]" measure_name="Survival (days) po" quantitative_result=5.3
compound="CS(=O)(=O)N1CCC2(CC1)OOC1(O2)C2CC3CC(C2)CC1C3 (centres unmarked) [OZ56]" measure_name="Survival (days) po" quantitative_result=6.7
